I'd be grateful if you could share measured inhibition at 0.01 µM for these entries.
target: protein farnesyltransferase (Rattus norvegicus, UniProt Q02293+Q04631); construct: Rat brain protein farnesyltransferase activity is measured; from tissue; host or cells: rat brain; purified according to Reiss et al., Cell 62:81-88 (1990), steps one through three; assay: in vitro inhibition of protein farnesyltransferase (scintillation proximity assay, biotin-K Ras B fragment); type: biochemical; conditions: at 1 × 10^-8 M; read-out: % inhibition of farnesyltransferase
Where a name gives a salt, the structure may show the parent alone.
Express your answer in %, writing the number without its unit.

inhibition at 0.01 µM reported for this compound CC[C@H](CC1CCCCC1)NCc1ccc(C(=O)N[C@@H](CCSC)C(=O)O)c(-c2ccccc2C)c1 [Example 614, Lithium Salt] : 92

Field inhibition at 0.01 µM (entry CCSC[C@H](CCc1ccccc1)NCc1ccc(C(=O)N[C@@H](CCSC)C(=O)O)c(-c2ccccc2C)c1 ) reads 92

Recorded result, COc1cccc(N(Cc2ccccc2)Cc2ccc(C(=O)N[C@@H](CCSC)C(=O)O)c(-c3ccccc3C)c2)c1 [Example 833, lithium salt] , inhibition at 0.01 µM: 78

Looking up CSCC[C@H](NC(=O)c1ccc(CN(Cc2ccccc2)c2ccc([N+](=O)[O-])cc2)cc1-c1ccccc1C)C(=O)O [Example 843, lithium salt] , I see its inhibition at 0.01 µM listed as 96

Note to self: inhibition at 0.01 µM recorded for CCSC[C@H](CC1CCCCC1)N(C)Cc1ccc(C(=O)N[C@@H](CCSC)C(=O)O)c(-c2ccccc2C)c1 [Example 944, hydrochloride salt] was 88

Measured inhibition at 0.01 µM, CSCC[C@H](NC(=O)c1ccc(CN(CCC2CCCCC2)S(=O)(=O)c2ccccc2)cc1-c1ccccc1C)C(=O)O [Example 612, Lithium Salt] : 96

* * *

Please respond with reported inhibition at 0.1 µM for every item in the list.
target: protein farnesyltransferase (Rattus norvegicus, UniProt Q02293+Q04631); construct: Rat brain protein farnesyltransferase activity is measured; from tissue; host or cells: rat brain; purified according to Reiss et al., Cell 62:81-88 (1990), steps one through three; assay: in vitro inhibition of protein farnesyltransferase (scintillation proximity assay, biotin-K Ras B fragment); type: biochemical; conditions: at 1 × 10^-7 M; read-out: % inhibition of farnesyltransferase
Where a name gives a salt, the structure may show the parent alone.

Reading of inhibition at 0.1 µM for CSCC[C@H](NC(=O)c1ccc(CNCCc2c[nH]c3ccccc23)cc1-c1ccccc1C)C(=O)O [Example 519, lithium salt] with protein farnesyltransferase (Rattus norvegicus, UniProt Q02293+Q04631): 89%

Item: CCSC[C@H](CC1CCCCC1)N(Cc1ccc(C(=O)N[C@@H](CCSC)C(=O)O)c(-c2ccccc2C)c1)C(=O)c1ccccc1 | System: protein farnesyltransferase (Rattus norvegicus, UniProt Q02293+Q04631) | inhibition at 0.1 µM: 57%

inhibition at 0.1 µM for protein farnesyltransferase (Rattus norvegicus, UniProt Q02293+Q04631) with input CCCCN(CCCC)C(=O)CNCc1ccc(C(=O)N[C@@H](CCSC)C(=O)O)c(-c2ccccc2C)c1 equals 85%

The reported inhibition at 0.1 µM value, protein farnesyltransferase (Rattus norvegicus, UniProt Q02293+Q04631), for CCCC[C@H](CC1CCCCC1)NCc1ccc(C(=O)N[C@@H](CCSC)C(=O)O)c(-c2ccccc2C)c1 [Example 615, Lithium Salt] reads 94%

GET /values?item= CSCC[C@H](NC(=O)c1ccc(CN(c2ccccc2)S(=O)(=O)c2ccc(C)cc2)cc1-c1ccccc1C)C(=O)O [Example 770, lithium salt] &system= protein farnesyltransferase (Rattus norvegicus, UniProt Q02293+Q04631) returns inhibition at 0.1 µM: 91%

# value of inhibition at 0.1 µM, protein farnesyltransferase (Rattus norvegicus, UniProt Q02293+Q04631), item CSCC[C@H](NC(=O)c1ccc(CN(Cc2ccc(Cl)cc2)c2ccccc2)cc1-c1ccccc1C)C(=O)O [Example 781, lithium salt] = 91%

Reading of inhibition at 0.1 µM for CSCC[C@H](NC(=O)c1ccc(CNCC(=O)N(Cc2ccccc2)Cc2ccccc2)cc1-c1ccccc1C)C(=O)O with protein farnesyltransferase (Rattus norvegicus, UniProt Q02293+Q04631): 91%

The reported protein farnesyltransferase (Rattus norvegicus, UniProt Q02293+Q04631) inhibition at 0.1 µM of CSCC[C@H](NC(=O)c1ccc(CN(c2ccccc2)S(=O)(=O)c2ccccc2)cc1-c1ccccc1C)C(=O)O [Example 769, lithium salt] is 90%

Summary line: CSCC[C@H](NC(=O)c1ccc(NC[C@@H]2C[C@H](S)CN2)cc1-c1ccccc1)C(=O)O , protein farnesyltransferase (Rattus norvegicus, UniProt Q02293+Q04631), reported inhibition at 0.1 µM = > 50%

Recorded inhibition at 0.1 µM for CCCCS(=O)(=O)N(Cc1ccc(C(=O)N[C@@H](CCSC)C(=O)O)c(-c2ccccc2C)c1)[C@H](CSCC)CC1CCCCC1 on protein farnesyltransferase (Rattus norvegicus, UniProt Q02293+Q04631) was 71%

Item: CCSC[C@H](CC1CCCCC1)N(Cc1ccc(C(=O)N[C@@H](CCSC)C(=O)O)c(-c2ccccc2C)c1)C(=O)OC(C)(C)C | System: protein farnesyltransferase (Rattus norvegicus, UniProt Q02293+Q04631) | inhibition at 0.1 µM: 75%

Per the reported protein farnesyltransferase (Rattus norvegicus, UniProt Q02293+Q04631) data, CSCC[C@H](NC(=O)c1ccc(CN(CCC2CCCCC2)S(C)(=O)=O)cc1-c1ccccc1C)C(=O)O [Example 611, Lithium Salt] has inhibition at 0.1 µM of 95%

# lookup: CSCC[C@H](NC(=O)c1ccc(CN[C@H](CCCC(C)C)CC2CCCCC2)cc1-c1ccccc1C)C(=O)O [Example 527, lithium salt] on protein farnesyltransferase (Rattus norvegicus, UniProt Q02293+Q04631), inhibition at 0.1 µM = 97%

Value (inhibition at 0.1 µM, protein farnesyltransferase (Rattus norvegicus, UniProt Q02293+Q04631)) for record CSCC[C@H](NC(=O)c1ccc(CN[C@H](CSc2ccccc2)CC2CCCCC2)cc1-c1ccccc1C)C(=O)O [Example 623, Lithium Salt] = 96%

Reported protein farnesyltransferase (Rattus norvegicus, UniProt Q02293+Q04631) inhibition at 0.1 µM for item CSCC[C@H](NC(=O)c1ccc(CN[C@@H](CO)C2CCCCC2)cc1-c1ccccc1C)C(=O)O [Example 604, Lithium Salt] was 86%

// assay protein farnesyltransferase (Rattus norvegicus, UniProt Q02293+Q04631), entry CCSC[C@H](CC1CCCCC1)N(Cc1ccc(C(=O)N[C@@H](CCSC)C(=O)O)c(-c2ccccc2C)c1)C(C)=O , inhibition at 0.1 µM value = 79%

GET /values?item= CCCCN(CCCC)Cc1ccc(C(=O)N[C@@H](CCSC)C(=O)O)c(-c2ccccc2C)c1 &system= protein farnesyltransferase (Rattus norvegicus, UniProt Q02293+Q04631) returns inhibition at 0.1 µM: 78%

Result for CCS(=O)(=O)C[C@H](CC1CCCCC1)NCc1ccc(C(=O)N[C@@H](CCS(C)(=O)=O)C(=O)O)c(-c2ccccc2C)c1 [Example 621, Lithium Salt] , tested on protein farnesyltransferase (Rattus norvegicus, UniProt Q02293+Q04631), inhibition at 0.1 µM: 98%

The reported protein farnesyltransferase (Rattus norvegicus, UniProt Q02293+Q04631) inhibition at 0.1 µM of CCSC[C@H](CC1CCCCC1)N(Cc1ccc(C(=O)N[C@@H](CCSC)C(=O)O)c(-c2ccccc2C)c1)S(=O)(=O)c1ccccc1 is 71%

Entry CSCC[C@H](NC(=O)c1ccc(CN[C@@H](CO)CC2CCCCC2)cc1-c1ccccc1C)C(=O)O [Example 618, Trifluoroacetate Salt] under protein farnesyltransferase (Rattus norvegicus, UniProt Q02293+Q04631) had inhibition at 0.1 µM of 89%

Considering CSCC[C@H](NC(=O)c1ccc(CNc2ccc(Oc3ccccc3)cc2)cc1-c1ccccc1C)C(=O)O , its inhibition at 0.1 µM with protein farnesyltransferase (Rattus norvegicus, UniProt Q02293+Q04631) was recorded as 84%

// compound CSCC[C@H](NC(=O)c1ccc(CN(CCC23CC4CC(CC(C4)C2)C3)c2ccccc2)cc1-c1ccccc1C)C(=O)O , assay protein farnesyltransferase (Rattus norvegicus, UniProt Q02293+Q04631), inhibition at 0.1 µM value: 82%

Lab entry: protein farnesyltransferase (Rattus norvegicus, UniProt Q02293+Q04631) assay, compound CSCC[C@H](NC(=O)c1ccc(CN(Cc2ccccc2)Cc2nccs2)cc1-c1ccccc1C)C(=O)O , inhibition at 0.1 µM = 86%

Reading of inhibition at 0.1 µM for CSCC[C@H](NC(=O)c1ccc(CN(Cc2ccccc2)Cc2cncs2)cc1-c1ccccc1C)C(=O)O with protein farnesyltransferase (Rattus norvegicus, UniProt Q02293+Q04631): 98%

Lab entry: protein farnesyltransferase (Rattus norvegicus, UniProt Q02293+Q04631) assay, compound CSCC[C@H](NC(=O)c1ccc(CNc2ccc(N3CCOCC3)cc2)cc1-c1ccccc1C)C(=O)O , inhibition at 0.1 µM = 72%

Entry CSCC[C@H](NC(=O)c1ccc(CN[C@H](CO)C2CCCCC2)cc1-c1ccccc1C)C(=O)O [Example 520, lithium salt] : inhibition at 0.1 µM on protein farnesyltransferase (Rattus norvegicus, UniProt Q02293+Q04631) = 97%
